test_system: monkey DLL3 on CHO-K1-cyno DLL3 cells (cynomolgus monkey)
Sequence (chain, as listed by the source limits assumed): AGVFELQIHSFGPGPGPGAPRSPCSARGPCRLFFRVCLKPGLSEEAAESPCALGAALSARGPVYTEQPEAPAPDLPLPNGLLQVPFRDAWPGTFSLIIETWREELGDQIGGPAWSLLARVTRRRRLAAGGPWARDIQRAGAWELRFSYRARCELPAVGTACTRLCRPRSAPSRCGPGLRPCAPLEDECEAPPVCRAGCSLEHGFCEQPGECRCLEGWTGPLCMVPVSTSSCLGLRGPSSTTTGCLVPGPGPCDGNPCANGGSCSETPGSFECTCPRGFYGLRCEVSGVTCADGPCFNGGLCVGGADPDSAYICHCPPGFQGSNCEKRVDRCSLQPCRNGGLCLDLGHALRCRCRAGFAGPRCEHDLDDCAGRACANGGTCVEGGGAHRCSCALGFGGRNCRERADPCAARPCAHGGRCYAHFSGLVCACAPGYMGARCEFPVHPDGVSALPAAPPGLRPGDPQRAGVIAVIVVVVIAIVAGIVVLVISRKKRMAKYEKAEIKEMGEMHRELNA
test_name: FACS, CHO-K1-cyno DLL3 cells, 0.032 nM antibody
recorded_endpoint: MFI (MFI)
Value expressed in MFI; do not type the unit.

>  <binder>
Hab015VL5VH6a-hFc (scFv, part only; not given: scFv linker and human IgG1 Fc, V domains shown, not shown: another chain or arm of the molecule; a dimerising Fc or GST; small tags and cut ends) VL: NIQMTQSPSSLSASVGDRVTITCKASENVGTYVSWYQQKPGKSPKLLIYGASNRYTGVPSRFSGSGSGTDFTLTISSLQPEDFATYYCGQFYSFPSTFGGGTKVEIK VH: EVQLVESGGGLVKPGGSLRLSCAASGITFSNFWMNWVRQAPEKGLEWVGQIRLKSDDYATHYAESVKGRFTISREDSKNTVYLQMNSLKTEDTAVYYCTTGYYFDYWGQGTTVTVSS

>  <units_text>
MFI

>  <MFI>
371

$$$$
>  <binder>
Hab006VL1VH4-hFc (scFv, part only; not given: VL-VH linker and human IgG1 Fc, V domains shown, not shown: another chain or arm of the molecule; a dimerising Fc or GST; small tags and cut ends) VL: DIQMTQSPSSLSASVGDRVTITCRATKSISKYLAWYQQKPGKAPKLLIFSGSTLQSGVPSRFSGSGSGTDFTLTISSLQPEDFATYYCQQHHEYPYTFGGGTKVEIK VH: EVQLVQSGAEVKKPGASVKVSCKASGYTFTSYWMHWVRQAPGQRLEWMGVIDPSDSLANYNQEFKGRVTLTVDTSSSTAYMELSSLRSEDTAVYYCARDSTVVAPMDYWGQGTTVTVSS

>  <units_text>
MFI

>  <MFI>
1730

$$$$
>  <binder>
Hab008L3H5-hFc (scFv, part only; not given: scFv linker and human IgG1 Fc, V domains shown, not shown: another chain or arm of the molecule; a dimerising Fc or GST; small tags and cut ends) VL: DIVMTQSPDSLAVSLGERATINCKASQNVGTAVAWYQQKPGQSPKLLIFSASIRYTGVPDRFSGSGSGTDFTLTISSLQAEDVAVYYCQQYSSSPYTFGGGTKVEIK VH: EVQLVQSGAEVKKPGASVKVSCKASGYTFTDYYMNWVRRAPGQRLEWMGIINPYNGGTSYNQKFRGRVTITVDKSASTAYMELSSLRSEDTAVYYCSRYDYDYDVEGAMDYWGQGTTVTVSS

>  <units_text>
MFI

>  <MFI>
252

$$$$

# get_value(readout='MFI', item= Hab009VL1aVH1-hFc (scFv, part only; not given: scFv linker and human IgG1 Fc, V domains shown, not shown: another chain or arm of the molecule; a dimerising Fc or GST; small tags and cut ends) VL: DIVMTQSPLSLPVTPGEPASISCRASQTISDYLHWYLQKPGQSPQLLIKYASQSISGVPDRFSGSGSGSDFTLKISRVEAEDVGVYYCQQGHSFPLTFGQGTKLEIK VH: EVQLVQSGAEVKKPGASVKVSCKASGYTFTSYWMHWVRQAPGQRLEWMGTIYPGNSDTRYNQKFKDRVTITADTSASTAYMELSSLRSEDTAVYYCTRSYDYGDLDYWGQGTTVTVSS )
423

# get_value(readout='MFI', item= Hab006VL4VH2-hFc (scFv, part only; not given: scFv linker and human IgG1 Fc, V domains shown, not shown: another chain or arm of the molecule; a dimerising Fc or GST; small tags and cut ends) VL: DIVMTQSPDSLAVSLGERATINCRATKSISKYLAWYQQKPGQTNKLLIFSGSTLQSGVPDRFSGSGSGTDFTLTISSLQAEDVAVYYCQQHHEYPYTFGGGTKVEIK VH: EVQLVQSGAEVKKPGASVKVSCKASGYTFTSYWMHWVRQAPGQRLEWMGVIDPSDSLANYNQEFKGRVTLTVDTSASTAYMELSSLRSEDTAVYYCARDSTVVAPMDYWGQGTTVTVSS )
1340

# get_value(readout='MFI', item= Hab015VL5VH1b-hFc (scFv, part only; not given: VL-VH linker and human IgG1 Fc, V domains shown, not shown: another chain or arm of the molecule; a dimerising Fc or GST; small tags and cut ends) VL: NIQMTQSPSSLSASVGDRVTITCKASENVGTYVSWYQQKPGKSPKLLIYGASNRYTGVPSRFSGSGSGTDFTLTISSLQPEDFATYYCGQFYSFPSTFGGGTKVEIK VH: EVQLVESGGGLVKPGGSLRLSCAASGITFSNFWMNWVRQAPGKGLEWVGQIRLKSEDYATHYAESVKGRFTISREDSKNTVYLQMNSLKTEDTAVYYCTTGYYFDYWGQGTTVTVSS )
410

# get_value(readout='MFI', item= Hab009VL3aVH1-hFc (scFv, part only; not given: VL-VH linker and human IgG1 Fc, V domains shown, not shown: another chain or arm of the molecule; a dimerising Fc or GST; small tags and cut ends) VL: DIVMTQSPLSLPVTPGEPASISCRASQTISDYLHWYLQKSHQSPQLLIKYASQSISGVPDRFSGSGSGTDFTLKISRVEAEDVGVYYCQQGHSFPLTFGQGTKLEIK VH: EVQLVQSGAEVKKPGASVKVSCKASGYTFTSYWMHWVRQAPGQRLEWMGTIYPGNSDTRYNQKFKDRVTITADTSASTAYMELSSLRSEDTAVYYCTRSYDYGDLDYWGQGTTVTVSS )
4020

# get_value(readout='MFI', item= Hab015VL4VH6a-hFc (scFv, part only; not given: scFv linker and human IgG1 Fc, V domains shown, not shown: another chain or arm of the molecule; a dimerising Fc or GST; small tags and cut ends) VL: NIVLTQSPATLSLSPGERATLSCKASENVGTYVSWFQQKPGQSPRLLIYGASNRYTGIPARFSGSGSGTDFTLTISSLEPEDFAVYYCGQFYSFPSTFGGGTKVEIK VH: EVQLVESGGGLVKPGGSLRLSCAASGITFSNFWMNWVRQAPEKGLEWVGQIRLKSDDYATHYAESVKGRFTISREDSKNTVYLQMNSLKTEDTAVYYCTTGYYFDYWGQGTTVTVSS )
352

# get_value(readout='MFI', item= Hab015VL5VH1a-hFc (scFv, part only; not given: scFv linker and human IgG1 Fc, V domains shown, not shown: another chain or arm of the molecule; a dimerising Fc or GST; small tags and cut ends) VL: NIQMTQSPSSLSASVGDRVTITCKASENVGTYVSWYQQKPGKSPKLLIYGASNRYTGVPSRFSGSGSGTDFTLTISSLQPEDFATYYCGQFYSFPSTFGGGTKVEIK VH: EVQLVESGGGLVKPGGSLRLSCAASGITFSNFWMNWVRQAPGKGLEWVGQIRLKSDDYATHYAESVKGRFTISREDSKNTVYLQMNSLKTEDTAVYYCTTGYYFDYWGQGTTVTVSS )
415
